# System: Escherichia coli TOP10;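 further: peptides expressed intracellularly from a pBAD plasmid library in pooled LB shake-flask culture, induced with 0.3% L-arabinose, DNA abundance read by NGS, three biological replicates, DESeq2 with apeglm shrinkage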
# assaySummary: shrunken log2 fold change of peptide-encoding DNA abundance (4.5 h post-induction vs induction); higher = less antimicrobial activity (less host growth inhibition)
# conditionDetails: time post-induction: 4.5 h; library: site-saturation at positions 5, 18, 19, 20
Each record's class is read off its shrunken log2 fold change using these ranges: low: < -0.1; medium: ≥ -0.1 and < 0.1; high: ≥ 0.1

RRIRARPPRLPRPRPRPVNKPRP : low

Q) Class for RRIRPRPPRLPRPRPRPSNNPRP ?
A) low

Q) Class for RRIRTRPPRLPRPRPRPYANPRP ?
A) medium

Q) Class for RRIRRRPPRLPRPRPRPLQRPRP ?
A) high

Q) Class for RRIRRRPPRLPRPRPRPRGGPRP ?
A) high

Q) Class for RRIRWRPPRLPRPRPRPCATPRP ?
A) high

Q) Class for RRIRDRPPRLPRPRPRPRAEPRP ?
A) high
